Experiment: Spinal cord pharmacokinetics after a single 1 mg/kg dose
Type: in vivo, C57BL/6J mice
Conditions: C57BL/6J, mouse, spinal cord, iv, 1 mg/kg
observable: Cmax (ng/g)

[[record]]
molecule = "CC(=O)N[C@@H](Cc1ccccc1)C(=O)N[C@H]1CCCNC(=O)[C@H](CCCNC(=N)N)NC(=O)[C@H](Cc2c[nH]c3ccccc23)NC(=O)[C@@H](CC2CCCCC2)NC(=O)[C@@H]2CCCN2C1=O [PMX53, Ac-Phe-[Orn-Pro-dCha-Trp-Arg]]"
number = 130


----------
Test: Brain pharmacokinetics after a single 1 mg/kg dose
Format: in vivo, C57BL/6J mice
Settings: C57BL/6J, mouse, brain, ip, 1 mg/kg
observable: Tmax (min)

[[record]]
compound = "CC(=O)N[C@@H](Cc1ccccc1)C(=O)N[C@H]1CCCNC(=O)[C@H](CCCNC(=N)N)NC(=O)[C@H](Cc2c[nH]c3ccccc23)NC(=O)[C@@H](CC2CCCCC2)NC(=O)[C@@H]2CCCN2C1=O [PMX53, Ac-Phe-[Orn-Pro-dCha-Trp-Arg]]"
number = 10.4


----------
Test: Brain pharmacokinetics after a single 1 mg/kg dose
Assay type: in vivo, C57BL/6J mice
Settings: C57BL/6J, mouse, brain, po, 1 mg/kg
observable: MRT last (min)

[[record]]
molecule = "CC(=O)N[C@@H](Cc1ccccc1)C(=O)N[C@H]1CCCNC(=O)[C@H](CCCNC(=N)N)NC(=O)[C@H](Cc2c[nH]c3ccccc23)NC(=O)[C@@H](CC2CCCCC2)NC(=O)[C@@H]2CCCN2C1=O [PMX53, Ac-Phe-[Orn-Pro-dCha-Trp-Arg]]"
number = 40.8


----------
Experiment: Spinal cord pharmacokinetics after a single 1 mg/kg dose
Type: in vivo, C57BL/6J mice
Conditions: C57BL/6J, mouse, spinal cord, po, 1 mg/kg
observable: Cmax (ng/g)

[[record]]
compound = "CC(=O)N[C@@H](Cc1ccccc1)C(=O)N[C@H]1CCCNC(=O)[C@H](CCCNC(=N)N)NC(=O)[C@H](Cc2c[nH]c3ccccc23)NC(=O)[C@@H](CC2CCCCC2)NC(=O)[C@@H]2CCCN2C1=O [PMX53, Ac-Phe-[Orn-Pro-dCha-Trp-Arg]]"
unittag = "ng/g"
number = 75.9


----------
Assay: Brain pharmacokinetics after a single 1 mg/kg dose
Type: in vivo, C57BL/6J mice
Details: C57BL/6J, mouse, brain, sc, 1 mg/kg
observable: Tmax (min)

[[record]]
compound = "CC(=O)N[C@@H](Cc1ccccc1)C(=O)N[C@H]1CCCNC(=O)[C@H](CCCNC(=N)N)NC(=O)[C@H](Cc2c[nH]c3ccccc23)NC(=O)[C@@H](CC2CCCCC2)NC(=O)[C@@H]2CCCN2C1=O [PMX53, Ac-Phe-[Orn-Pro-dCha-Trp-Arg]]"
number = 19.9


----------
Experiment: Spinal cord pharmacokinetics after a single 1 mg/kg dose
Assay type: in vivo, C57BL/6J mice
Settings: C57BL/6J, mouse, spinal cord, po, 1 mg/kg
observable: k el

[[record]]
compound = "CC(=O)N[C@@H](Cc1ccccc1)C(=O)N[C@H]1CCCNC(=O)[C@H](CCCNC(=N)N)NC(=O)[C@H](Cc2c[nH]c3ccccc23)NC(=O)[C@@H](CC2CCCCC2)NC(=O)[C@@H]2CCCN2C1=O [PMX53, Ac-Phe-[Orn-Pro-dCha-Trp-Arg]]"
result = "0.000122 s⁻¹"


Recorded values, source paper PMC7017397.
